Origin of measurements: PubChem BioAssay AID328

system: BDF1 mice, P388 leukemia ip, median survival T/C; experiment: NCI In Vivo Anticancer Drug Screen. Data for tumor model P388 Leukemia (intraperitoneal) in B6D2F1 (BDF1) mice; conditions: endpoint: median survival time; dose: 25.0 mg/kg/injection; schedule: Q01DX009 (ip); vehicle: saline
Inconclusive results and toxic doses are left out. Rule for the calls: active = survival T/C of 150% or more; inactive = T/C below 125% in these data.
Give one outcome, nothing more. List: active, inactive

Qu. Query: recorded result category for `Br/C(=N\Nc1nn[nH]n1)c1ccncc1` in this test
Ans. inactive

Qu. Another molecule to check: CC([OH2+])CNCCN.CC([OH2+])CNCCN.[Cu+2].[O-][Cl+3]([O-])([O-])[O-] (stereo unspecified)
Ans. inactive

Qu. Another molecule to check: `CCCCCCCCCCCCNC(=O)c1ccc[n+](C)c1`
Ans. inactive

Qu. Another molecule to check: `CC1(C)N=C(N)N=C(N)N1c1ccc(OCCCOc2ccc(S(=O)(=O)F)cc2)c(Cl)c1`
Ans. inactive

Qu. Another molecule to check: `CCCCCCCCN1CCCNCC1`
Ans. inactive

Qu. Another molecule to check: `COc1ccc(Cc2nccc3c(OC)c(OC)ccc23)cc1OC`
Ans. inactive

Qu. Another molecule to check: `C1O[C@@H]1[C@H]1CO1`
Ans. active

Qu. Another molecule to check: `C[CH2][Sn]([CH2]C)([O]S(=O)(=O)CC12CCC(CC1=O)C2(C)C)[O]S(=O)(=O)CC12CCC(CC1=O)C2(C)C`
Ans. active

Qu. Another molecule to check: `CC1(C)CC(=O)c2ccccc21`
Ans. inactive

Qu. Another molecule to check: CCOC(=O)Nc1cc(NC(C)CCCN(CC)CC)c2ncc(-c3ccc(Cl)c(Cl)c3)nc2n1 (stereo unspecified) (tested in a mixture with another compound)
Ans. inactive

Qu. Another molecule to check: `COC1(OC)C2CCC1C(Cl)=C2Cl`
Ans. inactive

----------
system: BDF1 mice, P388 leukemia ip, median survival T/C; experiment: NCI In Vivo Anticancer Drug Screen. Data for tumor model P388 Leukemia (intraperitoneal) in B6D2F1 (BDF1) mice; conditions: endpoint: median survival time; dose: 6.25 mg/kg/injection; schedule: Q04DX003 (ip); vehicle: water; higher = longer survival
Inconclusive results and toxic doses are left out.
Please provide measured T/C for the entries that follow.

Qu. Look at this molecule and give its reported T/C. `COc1cc(OC)cc(C(=O)N2CC2)c1`
Ans. 105 % of control

Qu. Another molecule to check: COC1(c2ccc(Br)cc2)OC1(C)C (stereo unspecified)
Ans. 101 % of control

Qu. Another molecule to check: `O=C(O)C1(C(=O)O)CCC2(CCCCC2)CC1`
Ans. 102 % of control

Qu. Another molecule to check: `CC[N+](CC)(CC)CCCCC[N+](CC)(CC)CC`
Ans. 104 % of control

Qu. Another molecule to check: `O=C1NC(c2cccs2)(c2cccs2)C(=O)N1Cl`
Ans. 97 % of control

Qu. Another molecule to check: `O/C(=C/C(=S)S)c1cccs1`
Ans. 111 % of control

----------
Tested on: BDF1 mice, P388 leukemia ip, median survival T/C
Experiment: NCI In Vivo Anticancer Drug Screen. Data for tumor model P388 Leukemia (intraperitoneal) in B6D2F1 (BDF1) mice
Settings: endpoint: median survival time; dose: 25.0 mg/kg/injection; schedule: Q01DX009 (ip); vehicle: Klucel (hydroxypropylcellulose) (HPC); higher = longer survival
Method: The antitumor activity of compounds was measured in mice bearing transplantable tumors. Survival or tumor size were measured and the results are expressed as the measurement made in the treated group (T) divided by the measurement made in the vehicle treated control group (C). The tumor model used in this assay is P388 Leukemia (intraperitoneal) in B6D2F1 (BDF1) mice
Inconclusive results and toxic doses are left out.
Please provide measured T/C for the entries that follow.

Qu. Give the reported T/C for C=C1C(=O)OC2/C=C(\CO)C(OC(C)=O)CC(O)/C(C)=C/C(OC(=O)C(C)CC)C12 (centres undefined) (system: BDF1 mice, P388 leukemia ip, median survival T/C).
Ans. 119 % of control

Qu. Another compound to check: `C/C(=C\c1ccccc1)[N+](=O)[O-]`
Ans. 100 % of control

Qu. Another compound to check: `CC(=O)Nc1nccs1`
Ans. 104 % of control

Qu. Another compound to check: `CS(=O)(=O)OCCCOS(C)(=O)=O`
Ans. 109 % of control

Qu. Another compound to check: `CP(C)c1ccccc1`
Ans. 92 % of control

Qu. Another compound to check: C=C1C(=O)OC(/C=C(\C)CO)C1C(C/C(C)=C/CO)OC(=O)/C(C)=C\C (centres undefined)
Ans. 111 % of control

Qu. Another compound to check: `CCSc1nc2ccc(Nn3nnnc3-c3ccccc3)cc2s1`
Ans. 98 % of control

Qu. Another compound to check: `O=C(Nc1cccc(C(F)(F)F)c1)Nc1nccs1`
Ans. 121 % of control

Qu. Another compound to check: `COc1ccc2c3csc4ccccc4c-3nc2c1`
Ans. 109 % of control

----------
test system: BDF1 mice, P388 leukemia ip, median survival T/C; assay: NCI In Vivo Anticancer Drug Screen. Data for tumor model P388 Leukemia (intraperitoneal) in B6D2F1 (BDF1) mice; conditions: endpoint: median survival time; dose: 100.0 mg/kg/injection; schedule: Q04DX003 (ip); vehicle: saline sonified; higher = longer survival
Inconclusive results and toxic doses are left out.
assay metric: T/C

Qu. Look at this compound and give its reported T/C. CCC12CCCN3C(=O)CC(C(=O)CC1)C32 (stereo not drawn)
Ans. 109 % of control

Qu. Another compound to check: `Cc1ccc(N2CCN(CCCN3CCN(c4ccc(Cl)cc4)CC3)CC2)cc1`
Ans. 95 % of control

Qu. Another compound to check: `CCc1ccc(OS(=O)(=O)c2ccccc2[N+](=O)[O-])cc1`
Ans. 100 % of control

Qu. Another compound to check: `O=[N+]([O-])c1ccc(S(=O)(=O)OCc2cccc(OS(=O)(=O)c3ccc([N+](=O)[O-])cc3)c2)cc1`
Ans. 105 % of control

Qu. Another compound to check: `CC(C)c1cccc(OS(=O)(=O)c2ccccc2[N+](=O)[O-])c1`
Ans. 100 % of control

Qu. Another compound to check: `C/C(=N\OCc1cc2c(cc1Cl)OCO2)C(=O)O`
Ans. 113 % of control

Qu. Another compound to check: `O=C(Nc1ccccc1F)Nc1cc(Cl)ccc1Cl`
Ans. 86 % of control

Qu. Another compound to check: CC1CC(C)(C)N=C(CCC[N+](=O)[O-])O1 (stereo not drawn)
Ans. 105 % of control

----------
Please provide measured T/C for the entries that follow.
system: BDF1 mice, P388 leukemia ip, median survival T/C; test: NCI In Vivo Anticancer Drug Screen. Data for tumor model P388 Leukemia (intraperitoneal) in B6D2F1 (BDF1) mice; conditions: endpoint: median survival time; dose: 300.0 mg/kg/injection; schedule: Q04DX003 (ip); vehicle: saline; higher = longer survival
Toxic doses and inconclusive results are not listed.

Qu. Look at this compound and give its reported T/C. `Cc1cc(N(CCCl)CCCl)ccc1/C=N\Nc1nncn1N`
Ans. 90 % of control

Qu. Another compound to check: `NS(=O)(=O)c1ccc(Cl)cc1`
Ans. 109 % of control

Qu. Another compound to check: `Cc1ccc(S(=O)(=O)N(C)c2ccc(C(=O)O)cc2F)cc1`
Ans. 100 % of control

Qu. Another compound to check: `Cn1cnc(C(N)=S)c1N`
Ans. 112 % of control

----------
Test system: BDF1 mice, P388 leukemia ip, median survival T/C
Assay: NCI In Vivo Anticancer Drug Screen. Data for tumor model P388 Leukemia (intraperitoneal) in B6D2F1 (BDF1) mice
Conditions: endpoint: median survival time; dose: 50.0 mg/kg/injection; schedule: Q01DX001 (ip); vehicle: Klucel (hydroxypropylcellulose) (HPC); higher = longer survival
Method: The antitumor activity of compounds was measured in mice bearing transplantable tumors. Survival or tumor size were measured and the results are expressed as the measurement made in the treated group (T) divided by the measurement made in the vehicle treated control group (C). The tumor model used in this assay is P388 Leukemia (intraperitoneal) in B6D2F1 (BDF1) mice
Inconclusive results and toxic doses are left out.
assay metric: T/C

Qu. Look at this molecule and give its reported T/C. `CCCCCCCCCCSCCSCCSCCCCCCCCCC`
Ans. 100 % of control

Qu. Another molecule to check: `O=C1CSC(=S)N1c1ccco1`
Ans. 100 % of control

Qu. Another molecule to check: `CC(=O)C(Cl)C(C)=O.CC(=O)C(Cl)C(C)=O.CO.CO.[Ni]`
Ans. 112 % of control

Qu. Another molecule to check: CCCCCC(C[N+](C)(C)C)C(=O)/C=C/c1ccc(Cl)cc1 (centres undefined)
Ans. 88 % of control
